Origin of values: paper PMC9352680

system.name: T1, PUF4 RNA-binding domain (Saccharomyces cerevisiae, UniProt P25339 537-888)
T1 sequence: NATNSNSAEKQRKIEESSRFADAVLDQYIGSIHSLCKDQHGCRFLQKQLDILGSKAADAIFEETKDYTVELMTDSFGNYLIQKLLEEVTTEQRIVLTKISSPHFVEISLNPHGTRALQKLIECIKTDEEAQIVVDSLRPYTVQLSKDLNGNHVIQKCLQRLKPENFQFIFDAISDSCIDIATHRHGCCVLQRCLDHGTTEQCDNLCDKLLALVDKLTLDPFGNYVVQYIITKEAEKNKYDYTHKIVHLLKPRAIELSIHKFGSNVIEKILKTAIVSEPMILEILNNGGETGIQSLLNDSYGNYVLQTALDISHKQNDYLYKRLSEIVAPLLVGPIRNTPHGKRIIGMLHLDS
test: Mg; RNA-MaP; 20 mM Na-HEPES pH 7.4, 30 mM KOAc, 0.75 mM MgCl2, 0.1% Tween-20, 5% glycerol, 0.1 mg/mL BSA, 2 mM DTT; 25 C; 0.0125-409.6 nM protein
assay.conditions: tags: N-His6-TEV cleaved; C-SNAP kept, Cy3B-labelled; label: tethered on chip by stalled RNA polymerase
Attribute: Kd
result.type: Kd

1) Ib_S2_P4E.1_K4.1_C4.1_H4.1_[T1G]_A4.1_[A6T]_F4.1_T4.1 (ssRNA) RNA: UUUGAUUAAUAUGAUAUCGUUCUUUCUGGUAUUUUAUUCUUUCUCGAUAUCAUAUUAAUCUUU: 497 nM
2) ACAAACGUUAUAUUAUUACUACAAAC (ssRNA) [Id_ii_S3_P5E.3_K5.2_C5.2_[C-2G]_H5.2_A5.1_F5.1_T5.2_[T11C]_[A12T]]: 580 nM
3) UCUCUUUGUAAUUGCCUCUCUU (ssRNA) [Ic_S1_P5E.1_K5.1_C5.1_H5.1_A5.1_[T5A]_[A7T]_F5.1_[T8G]_[T9C]_[A10C]_T5.1]: 645 nM
4) UCUCUUUCUGUAUAUACUUCUCUU (ssRNA) [Id_ii_S1_P3E.2_K3.1_C3.2_[C-2T]_[T-1C]_H3.1_A3.1_F3.1_T3.2_[T9C]_[A10T]]: 9.31 nM
5) UCUCUUAAACACUAUUAUCUCUCUU (ssRNA) [Id_ii_S1_P4E.4_K4.3_C4.2_[C-2A]_[T-1A]_H4.3_A4.1_F4.1_T4.2_[G10T]_[T11C]]: > 2300 nM
6) Ic_S2_P3E.1_K3.1_C3.1_H3.1_A3.1_[T5G]_[A6T]_F3.1_[A8T]_T3.1 (ssRNA) RNA: UUUGAUUAAUAUGAUAUCGUUCUUUCUUGUAGUUUUUCUUUCUCGAUAUCAUAUUAAUCUUU: 23.2 nM
7) Id_ii_S2_P4E.3_K4.2_C4.2_H4.2_A4.1_F4.1_T4.2_[G10T] (ssRNA) RNA: UUUGAUUAAUAUGAUAUCGUUCUUUCUCUUAUAUAUUAUUUUCUUUCUCGAUAUCAUAUUAAUCUUU: 3.81 nM
8) Id_ii_S2_P5E.2_K5.1_C5.2_[C-2T]_[T-1G]_H5.1_A5.1_F5.1_T5.2_[T11G]_[A12C] (ssRNA) RNA: UUUGAUUAAUAUGAUAUCGUUCUUUCUUGUGUAUUAUUAGCUUCUUUCUCGAUAUCAUAUUAAUCUUU: 2.9 nM
9) UCUCUUUGUAAAACGGUCUCUU (ssRNA) [Ic_S1_P5E.1_K5.1_C5.1_H5.1_A5.1_[T5A]_[T6A]_F5.1_[T8C]_[T9G]_[A10G]_T5.1]: 625 nM
10) Id_ii_S4_P4E.3_K4.2_C4.2_[C-2T]_H4.2_A4.1_F4.1_T4.2_[G10C]_[T11G] (ssRNA) RNA: UUUGACAACUGAUCGUUCUUUCUUUUAUAUAUUACGUUCUUUCUCGAUCAGUUGUCUUU: 10.1 nM
11) ACAAACACACACUAUUAUUACAAAC (ssRNA) [Id_ii_S3_P4E.4_K4.3_C4.2_[C-2A]_[T-1C]_H4.3_A4.1_F4.1_T4.2_[G10T]]: > 2300 nM
12) UCUCUUUGUAUAUGUCUCUU (ssRNA) [Ia_S1_P3E.1_K3.1_C3.1_H3.1_A3.1_F3.1_[A8G]_T3.1]: 17 nM
13) UCUCUUUGUAGUCAUUCUCUU (ssRNA) [Ic_S1_P4E.1_K4.1_C4.1_H4.1_A4.1_[T5G]_[A6T]_[T7C]_F4.1_[T8A]_[A9T]_T4.1]: 971 nM
14) Id_ii_S2_P4E.3_K4.2_C4.2_[C-2T]_[T-1A]_H4.2_A4.1_F4.1_T4.2_[T11C] (ssRNA) RNA: UUUGAUUAAUAUGAUAUCGUUCUUUCUUAUAUAUAUUAGCUUCUUUCUCGAUAUCAUAUUAAUCUUU: 10.2 nM
15) UCUCUUUGCUCUAUUAUUAUCUCUU (ssRNA) [Ie_S1_P5E.1_K5.1_C5.1_H5.1_[+2CTC]_A5.1_F5.1_T5.1]: > 2300 nM
16) Id_ii_S2_P3E.4_K3.3_C3.2_[T-1C]_H3.3_A3.1_F3.1_T3.2_[T9C]_[A10T] (ssRNA) RNA: UUUGAUUAAUAUGAUAUCGUUCUUUCUCCACACUAUACUUUCUUUCUCGAUAUCAUAUUAAUCUUU: 1080 nM
17) Ic_S4_P5E.1_K5.1_C5.1_H5.1_A5.1_[T5A]_[T6C]_[A7T]_F5.1_[T8C]_[T9A]_T5.1 (ssRNA) RNA: UUUGACAACUGAUCGUUCUUUCUUGUAACUCAAUUCUUUCUCGAUCAGUUGUCUUU: 857 nM
18) UCUCUUUGUACGCGUCUCUCUU (ssRNA) [Ic_S1_P5E.1_K5.1_C5.1_H5.1_A5.1_[T5C]_[T6G]_[A7C]_F5.1_[T8G]_[A10C]_T5.1]: 1980 nM
19) Ib_S2_P5E.1_K5.1_C5.1_H5.1_[G2A]_A5.1_F5.1_[A10G]_T5.1 (ssRNA) RNA: UUUGAUUAAUAUGAUAUCGUUCUUUCUUAUAUUAUUGUUCUUUCUCGAUAUCAUAUUAAUCUUU: 420 nM
20) UCUCUUUGUACACUCUCUCUU (ssRNA) [Ic_S1_P4E.1_K4.1_C4.1_H4.1_A4.1_[T5C]_[T7C]_F4.1_[A9C]_T4.1]: 8.95 nM
21) Id_ii_S4_P5E.2_K5.1_C5.2_[T-1C]_H5.1_A5.1_F5.1_T5.2_[A12T] (ssRNA) RNA: UUUGACAACUGAUCGUUCUUUCUCCUGUAUUAUUAUUUUCUUUCUCGAUCAGUUGUCUUU: 1.38 nM
22) Ic_S2_P4E.1_K4.1_C4.1_H4.1_A4.1_[A6G]_[T7C]_F4.1_[A9T]_T4.1 (ssRNA) RNA: UUUGAUUAAUAUGAUAUCGUUCUUUCUUGUAUGCUUUUCUUUCUCGAUAUCAUAUUAAUCUUU: 23.9 nM
23) UCUCUUAUUAUAUAUAUUUCUCUU (ssRNA) [Id_ii_S1_P3E.3_K3.2_C3.2_[C-2A]_H3.2_A3.1_F3.1_T3.2_[A10T]]: 383 nM
24) Ie_S4_P3E.2_K3.1_C3.2_H3.1_A3.1_F3.1_[+7C]_T3.2 (ssRNA) RNA: UUUGACAACUGAUCGUUCUUUCUCUUGUAUAUCAUAUUCUUUCUCGAUCAGUUGUCUUU: 2.77 nM
